TESTED_TARGET: Oleandomycin glycosyltransferase (Streptomyces antibioticus)
Sequence (whole entry): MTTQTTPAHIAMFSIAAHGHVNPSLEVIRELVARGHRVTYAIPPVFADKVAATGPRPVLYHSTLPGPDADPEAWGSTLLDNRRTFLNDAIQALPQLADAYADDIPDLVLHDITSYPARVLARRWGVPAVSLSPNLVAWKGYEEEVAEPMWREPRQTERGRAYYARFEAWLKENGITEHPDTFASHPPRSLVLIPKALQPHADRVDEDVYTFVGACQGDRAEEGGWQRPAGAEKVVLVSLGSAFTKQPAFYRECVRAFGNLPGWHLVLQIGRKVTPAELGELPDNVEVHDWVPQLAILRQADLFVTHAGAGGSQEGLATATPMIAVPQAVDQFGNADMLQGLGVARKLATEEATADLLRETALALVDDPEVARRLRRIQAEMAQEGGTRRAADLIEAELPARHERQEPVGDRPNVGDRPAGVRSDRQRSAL
ASSAY_OVERVIEW: Activity at Streptomyces antibioticus wild-type OleD assessed as as rate of glucoside formation measured as nanomoles of product formed per minute per mg of enzyme

MOLECULE	TESTED_TARGET	UNIT_LABEL	Activity
O=c1c(-c2ccc(O)cc2)coc2cc(O)cc(O)c12	Oleandomycin glycosyltransferase (Streptomyces antibioticus)	nmol/min	3.4
Cc1cc(=O)oc2cc(O)ccc12	Oleandomycin glycosyltransferase (Streptomyces antibioticus)	nmol/min	2.5
O=c1c(-c2ccc(O)cc2)coc2cc(O)ccc12	Oleandomycin glycosyltransferase (Streptomyces antibioticus)	nmol/min	4.2
